- tested-on: RON (human) (Homo sapiens)
- assay-comment: RON (human) AlphaScreen kinase assay, Km of ATP
- Assay type: biochemical
- condition: AlphaScreen, Km of ATP; read-out: RON biochemical IC50
The entries below come with measured IC50 values attached.

Solved cases (5 shown):
> print(dat)
                                   compound                   tested.on          result
1  C[C@@H](Oc1c(N)ncc2c(-c3cccn3C)coc12)c1c(Cl)ccc(F)c1Cl [Example 121]  RON (human) (Homo sapiens)  500 to 5000 nM
2  Nc1ncc2c(-c3cnn(C4CCNCC4)c3)coc2c1O[C@H]1CCC[C@H]1c1cccc(F)c1 [Example 408]  RON (human) (Homo sapiens)  500 to 5000 nM
3  C[C@@H](Oc1c(N)ncc2c(-c3ccc(N)nc3)coc12)c1c(Cl)ccc(F)c1Cl [Example 131]  RON (human) (Homo sapiens)  500 to 5000 nM
4  C[C@@H](Oc1c(N)ncc2c(-c3cccc(C(=O)O)c3)coc12)c1c(Cl)ccc(F)c1Cl [Example 80]  RON (human) (Homo sapiens)  500 to 5000 nM
5  C[C@@H](Oc1c(N)ncc2c(C3=CCN(C(=O)[C@@H]4CCCN4)CC3)coc12)c1c(Cl)ccc(F)c1Cl [Example 22]  RON (human) (Homo sapiens)        < 500 nM

Prompt: Find the recorded IC50 belonging to C[C@@H](Oc1c(N)ncc2c(-c3ccc(C(N)=O)s3)coc12)c1c(Cl)ccc(F)c1Cl [Example 209] and report it.
Completion: 500 to 5000 nM

Prompt: Param item = C[C@@H](Oc1c(N)ncc2c(-c3ccc(CN4CCC(O)CC4)s3)coc12)c1c(Cl)ccc(F)c1Cl [Example 216] ; retrieve measured IC50.
Completion: < 500 nM

Prompt: For Nc1ncc2c(-c3cnn(C4CCNCC4)c3)coc2c1O[C@H]1CCC[C@H]1c1ccccc1 [Example 407] , what is its reported IC50?
Completion: 500 to 5000 nM

Prompt: What value of measured IC50 is listed for C[C@@H](Oc1c(N)ncc2c(C3=CCN(C(=O)[C@H](N)Cc4ccccc4)CC3)coc12)c1c(Cl)ccc(F)c1Cl [Example 257] ?
Completion: 500 to 5000 nM

Prompt: Param item = C[C@@H](Oc1c(N)ncc2c(C3=CCN(C(=O)N(C)C)CC3)coc12)c1c(Cl)ccc(F)c1Cl [Example 26] ; retrieve measured IC50.
Completion: 500 to 5000 nM

Prompt: Quick one: IC50 for CNC(=O)c1cccc(-c2coc3c(O[C@H](C)c4c(Cl)ccc(F)c4Cl)c(N)ncc23)c1 [Example 68] ?
Completion: 500 to 5000 nM

Prompt: Param item = C[C@@H](Oc1c(N)ncc2c(-c3ccc(C(=O)N4CCN(CC(=O)N(C)C)CC4)cc3)coc12)c1c(Cl)ccc(F)c1Cl [Example 300] ; retrieve measured IC50.
Completion: 500 to 5000 nM

Prompt: What value of IC50 has been reported for the following compound? C[C@@H](Oc1c(N)ncc2c(C3=CCN(C(=O)N4CCN(C(C)(C)C)CC4)CC3)coc12)c1c(Cl)ccc(F)c1Cl [Example 29]
Completion: < 500 nM

Prompt: Which IC50 reading was recorded for the compound CC(Cc1ccccc1Br)Oc1c(N)ncc2c(-c3cnn(C4CCNCC4)c3)coc12 (stereo not drawn) [Example 436] ?
Completion: < 500 nM

====

- tested-on: RON (human) (Homo sapiens, UniProt Q04912)
- Sequence (Q04912 25-1400): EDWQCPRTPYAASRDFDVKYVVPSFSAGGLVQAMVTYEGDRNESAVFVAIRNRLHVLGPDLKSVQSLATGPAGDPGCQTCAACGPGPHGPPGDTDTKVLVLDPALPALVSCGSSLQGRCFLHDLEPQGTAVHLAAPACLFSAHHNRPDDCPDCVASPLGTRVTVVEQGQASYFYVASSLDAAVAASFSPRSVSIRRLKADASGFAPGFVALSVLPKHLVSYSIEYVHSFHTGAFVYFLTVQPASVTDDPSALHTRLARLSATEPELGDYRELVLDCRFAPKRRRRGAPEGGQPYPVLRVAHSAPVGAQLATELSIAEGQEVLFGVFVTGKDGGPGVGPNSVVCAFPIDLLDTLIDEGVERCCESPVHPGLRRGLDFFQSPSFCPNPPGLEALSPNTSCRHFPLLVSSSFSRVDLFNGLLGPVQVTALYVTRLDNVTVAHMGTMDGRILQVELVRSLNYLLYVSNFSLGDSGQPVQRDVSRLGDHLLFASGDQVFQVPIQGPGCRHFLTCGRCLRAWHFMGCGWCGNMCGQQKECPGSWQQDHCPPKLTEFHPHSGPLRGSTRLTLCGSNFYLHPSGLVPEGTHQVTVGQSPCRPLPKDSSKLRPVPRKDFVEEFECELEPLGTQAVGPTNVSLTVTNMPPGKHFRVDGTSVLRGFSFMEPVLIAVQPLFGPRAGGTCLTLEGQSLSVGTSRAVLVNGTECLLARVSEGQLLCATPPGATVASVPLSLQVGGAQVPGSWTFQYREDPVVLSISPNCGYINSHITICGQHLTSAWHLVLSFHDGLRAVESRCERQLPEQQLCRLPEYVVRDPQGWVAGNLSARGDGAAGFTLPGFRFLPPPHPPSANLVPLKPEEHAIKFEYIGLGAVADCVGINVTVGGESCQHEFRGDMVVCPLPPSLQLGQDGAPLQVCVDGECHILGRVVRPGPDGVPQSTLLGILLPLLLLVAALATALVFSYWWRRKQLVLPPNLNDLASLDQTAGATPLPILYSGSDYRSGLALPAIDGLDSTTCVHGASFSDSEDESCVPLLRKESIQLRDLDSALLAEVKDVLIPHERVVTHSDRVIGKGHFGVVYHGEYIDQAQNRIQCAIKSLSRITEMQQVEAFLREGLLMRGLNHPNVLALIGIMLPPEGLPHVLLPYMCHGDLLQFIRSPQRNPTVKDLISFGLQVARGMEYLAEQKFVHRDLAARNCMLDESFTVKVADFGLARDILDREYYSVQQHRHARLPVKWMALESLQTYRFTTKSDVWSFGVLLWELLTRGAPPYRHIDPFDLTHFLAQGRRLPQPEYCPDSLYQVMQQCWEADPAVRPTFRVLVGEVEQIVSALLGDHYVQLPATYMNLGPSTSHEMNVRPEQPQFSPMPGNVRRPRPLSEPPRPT
- assay-comment: RON (human) AlphaScreen kinase assay, Km of ATP
- Format: biochemical
- condition: AlphaScreen, Km of ATP; read-out: RON biochemical IC50
Recorded measurements of IC50, one per entry

Below, each entry is followed by its recorded IC50 result.
> print(dat)
                                   compound          result
1  C[C@@H](Oc1c(N)ncc2c(-c3cccc(C(=O)N4CCN(CCO)CC4)c3)coc12)c1c(Cl)ccc(F)c1Cl  500 to 5000 nM
2  C[C@@H](Oc1c(N)ncc2c(C3=CCN(C(=O)CN)CC3)coc12)c1c(Cl)ccc(F)c1Cl        < 500 nM
3  C[C@@H](Oc1c(N)ncc2c(C3=CCN(CCN)CC3)coc12)c1c(Cl)ccc(F)c1Cl        < 500 nM

Prompt: Entry under review: `C[C@@H](Oc1c(N)ncc2c(-c3cccnc3)coc12)c1c(Cl)ccc(F)c1Cl` . Reported IC50?
Completion: 500 to 5000 nM

Prompt: Which IC50 value is on record for CC(Oc1c(N)ncc2c(-c3cnn(C4CCNCC4)c3)coc12)c1cccc(C(N)=O)c1 (stereo not shown) ?
Completion: 500 to 5000 nM

Prompt: I'd like to know its IC50. The compound in question is `C[C@@H](Oc1c(N)ncc2c(C3=CCN(C(=O)CN(C)C)CC3)coc12)c1c(Cl)ccc(F)c1Cl`
Completion: < 500 nM

Prompt: What measured IC50 goes with COc1cccc(CC(C)Oc2c(N)ncc3c(-c4cnn(C5CCNCC5)c4)coc23)c1 (stereo not shown) ?
Completion: < 500 nM

====

Reported IC50 values follow for various compounds
- tested-on: UniProt Q04912
- assay-comment: RON (human) AlphaScreen kinase assay, Km of ATP
- Format: biochemical
- condition: AlphaScreen, Km of ATP; read-out: RON biochemical IC50

Consider the reported IC50 for these compounds:
> print(dat)
                                   compound       tested.on  assay.endpoint       result
1  C[C@@H](Oc1c(N)ncc2c(C3=CCN(C(=O)[C@@H](N)Cc4ccccc4)CC3)coc12)c1c(Cl)ccc(F)c1Cl  UniProt Q04912            IC50  0.5 to 5 µM
2  CC(C)NC(=O)c1cc(-c2coc3c(O[C@H](C)c4c(Cl)ccc(F)c4Cl)c(N)ncc23)cs1  UniProt Q04912            IC50  0.5 to 5 µM
3  C[C@@H](N)C(=O)N1CC=C(c2coc3c(O[C@H](C)c4c(Cl)ccc(F)c4Cl)c(N)ncc23)CC1  UniProt Q04912            IC50     < 0.5 µM
4  CNS(=O)(=O)c1cccc(-c2coc3c(O[C@H](C)c4c(Cl)ccc(F)c4Cl)c(N)ncc23)c1  UniProt Q04912            IC50  0.5 to 5 µM
5  CCC(Oc1c(N)ncc2c(-c3cnn(C4CCNCC4)c3)coc12)c1c(Cl)cccc1Cl (centres unmarked)  UniProt Q04912            IC50  0.5 to 5 µM

Prompt: For UniProt Q04912, provide IC50 of `C[C@@H](Oc1c(N)ncc2c(-c3ccc(C(=O)N4CCNCC4)cc3)coc12)c1c(Cl)ccc(F)c1Cl` please.
Completion: < 0.5 µM

Prompt: # get_value(readout= IC50, system= UniProt Q04912) for C[C@@H](Oc1c(N)ncc2c(C3=CC(N)CCC3)coc12)c1c(Cl)ccc(F)c1Cl (some centres unmarked)
Completion: 0.5 to 5 µM

Prompt: Record CC(Oc1c(N)ncc2c(-c3cnn(C4CCNCC4)c3)coc12)c1cccc(OC(F)(F)F)c1 (centres unmarked) : what is its IC50 with UniProt Q04912?
Completion: 0.5 to 5 µM

Prompt: Provide value of IC50 for this record tested with UniProt Q04912: Cc1cccc(Cl)c1C(C)Oc1c(N)ncc2c(-c3cnn(C4CCNCC4)c3)coc12 (centres unmarked)
Completion: 0.5 to 5 µM

Prompt: For UniProt Q04912, provide IC50 of `CC(C)C(=O)N1CC=C(c2coc3c(O[C@H](C)c4c(Cl)ccc(F)c4Cl)c(N)ncc23)CC1` please.
Completion: 0.5 to 5 µM

Prompt: Can you look up IC50 on UniProt Q04912 for `Cn1c(Cc2ccccc2)ncc(-c2ccc(COc3c(N)ncc4c(Br)coc34)c(F)c2)c1=O` ?
Completion: 0.5 to 5 µM

Prompt: Notebook entry, UniProt Q04912 assay: IC50 of CC(Cc1ccccc1)Oc1c(N)ncc2c(-c3cnn(C4CCNCC4)c3)coc12 (centres unmarked) = ?
Completion: < 0.5 µM

====

- tested-on: MET (human) (Homo sapiens, UniProt P08581)
- Sequence (P08581 25-1390): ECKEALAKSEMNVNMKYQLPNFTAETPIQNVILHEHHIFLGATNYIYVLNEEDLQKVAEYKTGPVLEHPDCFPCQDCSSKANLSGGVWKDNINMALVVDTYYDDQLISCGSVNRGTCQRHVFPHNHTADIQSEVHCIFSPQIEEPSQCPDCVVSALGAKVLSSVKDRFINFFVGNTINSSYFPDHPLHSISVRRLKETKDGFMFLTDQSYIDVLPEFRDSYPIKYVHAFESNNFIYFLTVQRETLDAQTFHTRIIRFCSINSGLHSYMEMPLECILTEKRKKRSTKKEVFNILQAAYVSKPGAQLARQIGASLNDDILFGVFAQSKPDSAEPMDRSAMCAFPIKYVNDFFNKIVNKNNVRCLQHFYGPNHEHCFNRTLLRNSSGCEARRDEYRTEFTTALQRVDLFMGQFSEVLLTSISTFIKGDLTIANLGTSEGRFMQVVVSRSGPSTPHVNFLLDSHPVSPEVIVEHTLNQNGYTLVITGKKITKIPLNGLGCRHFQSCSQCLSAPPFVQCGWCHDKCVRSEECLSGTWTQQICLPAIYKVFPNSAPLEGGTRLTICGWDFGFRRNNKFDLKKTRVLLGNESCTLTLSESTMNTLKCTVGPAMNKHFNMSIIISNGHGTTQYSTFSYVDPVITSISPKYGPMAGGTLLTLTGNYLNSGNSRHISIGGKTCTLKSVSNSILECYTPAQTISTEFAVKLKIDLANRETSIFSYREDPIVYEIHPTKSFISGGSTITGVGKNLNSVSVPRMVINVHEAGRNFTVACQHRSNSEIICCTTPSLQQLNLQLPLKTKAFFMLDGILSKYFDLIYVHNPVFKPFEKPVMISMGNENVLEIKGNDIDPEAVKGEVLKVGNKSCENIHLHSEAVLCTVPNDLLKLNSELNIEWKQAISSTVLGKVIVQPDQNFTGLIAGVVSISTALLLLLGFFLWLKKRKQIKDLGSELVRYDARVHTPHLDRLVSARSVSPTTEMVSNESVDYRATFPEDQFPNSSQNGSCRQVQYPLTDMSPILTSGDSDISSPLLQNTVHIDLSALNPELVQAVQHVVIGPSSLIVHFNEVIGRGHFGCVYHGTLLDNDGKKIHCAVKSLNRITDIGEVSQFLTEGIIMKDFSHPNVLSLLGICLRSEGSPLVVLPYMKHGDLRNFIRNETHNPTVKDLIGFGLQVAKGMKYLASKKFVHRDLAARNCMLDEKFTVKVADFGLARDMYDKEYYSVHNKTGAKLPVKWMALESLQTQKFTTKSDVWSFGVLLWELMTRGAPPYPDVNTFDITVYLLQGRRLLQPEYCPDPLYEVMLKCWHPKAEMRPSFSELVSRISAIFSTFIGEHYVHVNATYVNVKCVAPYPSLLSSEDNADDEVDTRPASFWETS
- assay-comment: MET (human) AlphaScreen kinase assay, Km of ATP
- Assay type: biochemical
- condition: AlphaScreen, Km of ATP; read-out: Met biochemical IC50
assay-endpoint: IC50

# count of solved cases: 6
> print(dat)
                                   compound  assay.endpoint       result
1  C[C@@H](Oc1c(N)ncc2c(-c3cnn(C4CCNCC4)c3)coc12)c1cccc(F)c1            IC50     < 0.5 µM
2  CC(Cc1ccc(Cl)cc1)Oc1c(N)ncc2c(-c3cnn(C4CCNCC4)c3)coc12 (stereo not shown)            IC50     < 0.5 µM
3  C[C@@H](Oc1c(N)ncc2c(-c3csc(C(=O)N4CCC(O)CC4)c3)coc12)c1c(Cl)ccc(F)c1Cl            IC50  0.5 to 5 µM
4  C[C@@H](Oc1c(N)ncc2c(-c3ccc(CO)s3)coc12)c1c(Cl)ccc(F)c1Cl            IC50  0.5 to 5 µM
5  CC(Oc1c(N)ncc2c(-c3cnn(C4CCNCC4)c3)coc12)c1c(F)cc(Cl)cc1Cl (stereo not shown)            IC50     < 0.5 µM
6  CC(Oc1c(N)ncc2c(-c3cnn(C4CCNCC4)c3)coc12)c1cccnc1 (stereo not shown)            IC50  0.5 to 5 µM

Prompt: Need IC50 of `C[C@@H](Oc1c(N)ncc2c(-c3ccc(N)cc3)coc12)c1c(Cl)ccc(F)c1Cl` , thanks.
Completion: 0.5 to 5 µM
